- EXPERIMENTAL SYSTEM: AGO2 WT (phosphosite mutant background) (Homo sapiens, UniProt Q9UKV8 1-859, S387D;S824A;S828D;S831D;S834A)
- Sequence (Q9UKV8 whole entry S387D/S824A/S828D/S831D/S834A): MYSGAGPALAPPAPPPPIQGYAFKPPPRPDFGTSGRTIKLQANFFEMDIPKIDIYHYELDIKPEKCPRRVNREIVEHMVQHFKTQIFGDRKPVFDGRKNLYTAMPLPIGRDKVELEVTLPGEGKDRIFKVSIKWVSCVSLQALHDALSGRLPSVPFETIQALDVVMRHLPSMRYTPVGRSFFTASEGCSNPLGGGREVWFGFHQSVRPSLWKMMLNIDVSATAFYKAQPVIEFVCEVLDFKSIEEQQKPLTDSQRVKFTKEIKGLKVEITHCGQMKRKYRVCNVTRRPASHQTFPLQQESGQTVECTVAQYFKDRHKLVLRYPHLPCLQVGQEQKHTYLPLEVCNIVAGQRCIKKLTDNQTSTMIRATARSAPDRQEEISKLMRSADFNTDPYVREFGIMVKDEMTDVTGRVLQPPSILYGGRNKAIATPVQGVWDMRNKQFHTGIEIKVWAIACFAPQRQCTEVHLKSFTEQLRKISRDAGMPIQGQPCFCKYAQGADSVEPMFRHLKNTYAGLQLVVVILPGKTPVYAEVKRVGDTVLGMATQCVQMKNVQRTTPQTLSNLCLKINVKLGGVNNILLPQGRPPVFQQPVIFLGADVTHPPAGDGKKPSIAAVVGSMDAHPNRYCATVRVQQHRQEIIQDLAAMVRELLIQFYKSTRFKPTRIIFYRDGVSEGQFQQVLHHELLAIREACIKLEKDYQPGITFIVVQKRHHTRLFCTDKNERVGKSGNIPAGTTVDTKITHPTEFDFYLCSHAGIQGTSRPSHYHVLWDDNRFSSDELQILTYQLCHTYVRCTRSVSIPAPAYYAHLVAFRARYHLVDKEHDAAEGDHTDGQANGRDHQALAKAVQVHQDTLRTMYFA
- PROTOCOL SUMMARY: RNA Bind-n-Seq (nitrocellulose filter binding and sequencing); miR-122 guide loaded in AGO2; 60 min incubation; 30 mM Tris pH 8.0, 100 mM potassium acetate, 2 mM magnesium acetate, 0.5 mM TCEP, 0.005% NP-40, 0.01 mg/ml yeast tRNA; 3 nM AGO2-miR-122, 100 nM RNA library; 60; high values mean tight binding
- STUDY CONDITIONS: protein: recombinant; tags: His6 (N-terminal, pFastBac HTA)
Recorded measurements of binding signal, one per entry
MEASUREMENT TYPE: binding signal

binder="ACGCTTCA (ssRNA, constant regions annealed to DNA blockers; guide miR-122 5' phosphate) RNA 1: GAGUUCUACAGUCCGACGAUCCCAACACGCUUCACACCUGGAAUUCUCGGGUGCCAA RNA 2: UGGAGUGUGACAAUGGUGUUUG DNA 1: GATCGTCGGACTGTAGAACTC DNA 2: TTGGCACCCGAGAATTCCA" recorded_measurement="0.133 fold enrichment over input"
binder="ACACTCCG (ssRNA, constant regions annealed to DNA blockers; guide miR-122 5' phosphate) RNA 1: GAGUUCUACAGUCCGACGAUCCCAACACACUCCGCACCUGGAAUUCUCGGGUGCCAA RNA 2: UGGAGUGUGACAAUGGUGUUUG DNA 1: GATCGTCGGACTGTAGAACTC DNA 2: TTGGCACCCGAGAATTCCA" recorded_measurement="154 fold enrichment over input"
binder="GCGTTTCA (ssRNA, constant regions annealed to DNA blockers; guide miR-122 5' phosphate) RNA 1: GAGUUCUACAGUCCGACGAUCCCAACGCGUUUCACACCUGGAAUUCUCGGGUGCCAA RNA 2: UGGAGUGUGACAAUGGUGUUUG DNA 1: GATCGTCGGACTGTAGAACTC DNA 2: TTGGCACCCGAGAATTCCA" recorded_measurement="0.125 fold enrichment over input"
binder="ACGTCTCA (ssRNA, constant regions annealed to DNA blockers; guide miR-122 5' phosphate) RNA 1: GAGUUCUACAGUCCGACGAUCCCAACACGUCUCACACCUGGAAUUCUCGGGUGCCAA RNA 2: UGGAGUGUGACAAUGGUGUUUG DNA 1: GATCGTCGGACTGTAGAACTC DNA 2: TTGGCACCCGAGAATTCCA" recorded_measurement="0.177 fold enrichment over input"
binder="GCACTCTG (ssRNA, constant regions annealed to DNA blockers; guide miR-122 5' phosphate) RNA 1: GAGUUCUACAGUCCGACGAUCCCAACGCACUCUGCACCUGGAAUUCUCGGGUGCCAA RNA 2: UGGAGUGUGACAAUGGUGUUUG DNA 1: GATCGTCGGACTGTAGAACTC DNA 2: TTGGCACCCGAGAATTCCA" recorded_measurement="0.143 fold enrichment over input"
binder="ACATTTTA (ssRNA, constant regions annealed to DNA blockers; guide miR-122 5' phosphate) RNA 1: GAGUUCUACAGUCCGACGAUCCCAACACAUUUUACACCUGGAAUUCUCGGGUGCCAA RNA 2: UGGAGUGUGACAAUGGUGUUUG DNA 1: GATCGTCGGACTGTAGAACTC DNA 2: TTGGCACCCGAGAATTCCA" recorded_measurement="0.122 fold enrichment over input"
binder="ACATCTCA (ssRNA, constant regions annealed to DNA blockers; guide miR-122 5' phosphate) RNA 1: GAGUUCUACAGUCCGACGAUCCCAACACAUCUCACACCUGGAAUUCUCGGGUGCCAA RNA 2: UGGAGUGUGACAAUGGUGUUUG DNA 1: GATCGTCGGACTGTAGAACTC DNA 2: TTGGCACCCGAGAATTCCA" recorded_measurement="0.206 fold enrichment over input"
binder="ACACCTTA (ssRNA, constant regions annealed to DNA blockers; guide miR-122 5' phosphate) RNA 1: GAGUUCUACAGUCCGACGAUCCCAACACACCUUACACCUGGAAUUCUCGGGUGCCAA RNA 2: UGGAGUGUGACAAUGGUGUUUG DNA 1: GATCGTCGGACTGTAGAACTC DNA 2: TTGGCACCCGAGAATTCCA" recorded_measurement="0.164 fold enrichment over input"

Source: paper PMC12529666
